- Species on record: Rattus norvegicus
- assayRemarks: Open TG-GATES - Regimen: Daily Repeat
- Format: toxicity, organism-based, Sprague-Dawley
- Parameters: regimen Daily Repeat, gender Male, age 6 weeks
- testSettings: in vivo, po, 100 mg/kg, 72 h, tissue Blood, route gavage, dose level Low, time 3 day
For each entry below, report its Ht value.
Give bare numbers, in %.

Would you please look over these solved cases?
| compound | unitAnnotation | Ht |
| --- | --- | --- |
| CCOc1ccc(NC(=O)CC(C)O)cc1 (stereo not given) [BUCETIN] | % | 41.5 |
| NC(N)=Nc1nc(CSCCC(N)=NS(N)(=O)=O)cs1 [FAMOTIDINE] | % | 37.3 |
| CCOC(=O)CCC(=O)O[C@H]1[C@H](O[C@@H]2[C@@H](C)[C@H](O[C@H]3C[C@@](C)(OC)[C@@H](O)[C@H](C)O3)[C@@H](C)C(=O)O[C@H](CC)[C@@](C)(O)[C@H](O)[C@@H](C)C(=O)[C@H](C)C[C@@]2(C)O)O[C@H](C)C[C@@H]1N(C)C [ERYTHROMYCIN ETHYLSUCCINATE] | % | 39.4 |
| COc1ccc2[nH]c([S+]([O-])Cc3ncc(C)c(OC)c3C)nc2c1 (stereo not given) [OMEPRAZOLE] | % | 38.3 |

What measured Ht goes with COC1=CC(=O)C[C@@H](C)[C@]12Oc1c(Cl)c(OC)cc(OC)c1C2=O [GRISEOFULVIN] ? 39.1

---

- Organism: Rattus norvegicus
- assayRemarks: Open TG-GATES - Regimen: Daily Repeat
- Format: toxicity, organism-based, Sprague-Dawley
- Set-up: regimen Daily Repeat, gender Male, age 6 weeks
- testSettings: in vivo, po, 0 mg/kg, 72 h, route gavage, dose level Control, time 3 day
For each entry below, report its TERMINAL_BW value.
Numbers only, in g.

Hello, I would appreciate it if you could give TERMINAL_BW for each entry below.
1. O=C(CCCN1CCC(O)(c2ccc(Cl)cc2)CC1)c1ccc(F)cc1
2. CC1=C(/C=C/C(C)=C/C=C/C(C)=C/CO)C(C)(C)CCC1

1. 226.4
2. 232.6

Hello, I would appreciate it if you could give TERMINAL_BW for each entry below.
1. CC(C)OC(=O)C(C)(C)Oc1ccc(C(=O)c2ccc(Cl)cc2)cc1 [FENOFIBRATE]
2. CN(C)CCCN1c2ccccc2CCc2ccccc21
3. CN1C(=O)CN=C(c2ccccc2)c2cc(Cl)ccc21

1: 218.5; 2: 230.9; 3: 246.7

---

- Organism: Rattus norvegicus
- assayRemarks: Open TG-GATES - Regimen: Single
- Type: toxicity, organism-based, Sprague-Dawley
- Set-up: regimen Single, gender Male, age 6 weeks
- testSettings: in vivo, po, 0 mg/kg, 9 h, tissue Plasma, route gavage, dose level Control
outcomeMeasure: TP (g/dL)
One number for each entry, in g/dL.

Would you please look over these solved cases?
| molecule | unitAnnotation | TP |
| --- | --- | --- |
| Cc1ccc(C)c(OCCCC(C)(C)C(=O)O)c1 [GEMFIBROZIL] | g/dL | 5.4 |
| COc1cc2c(c(OC)c1OC)-c1ccc(OC)c(=O)cc1[C@@H](NC(C)=O)CC2 [COLCHICINE] | g/dL | 5.4 |
| COC1=CC(=O)C[C@@H](C)[C@]12Oc1c(Cl)c(OC)cc(OC)c1C2=O [GRISEOFULVIN] | g/dL | 5.5 |
| CN(C)CCN(Cc1cccs1)c1ccccn1 | g/dL | 5.3 |

What measured TP goes with CN(C)CCCN1c2ccccc2CCc2ccccc21 [IMIPRAMINE] ? 5.2
